- Test system: HCV
- protocol details: anti-HCV activity assay in cell culture (HCV RNA by one-step quantitative RT-PCR)
- Assay type: cell-based
- condition: Hepatitis C virus, Huh7.5, 96 h, compound at 10 μmol/L; Huh7.5 cells infected with HCV virus particles; cultured 96 hrs; HCV RNA in cells vs virus control group; read-out: percent inhibition (%)
Outcome: Met for inhibition at 10 µM of at least 80%; Not met for anything lower.

Consider the worked cases shown below.
1) CN1CCN(c2ccc(C#N)c(CNc3ccc(Cl)cc3)c2)CC1 ... Met
2) CN1CCN(c2ccc(C#N)c(CN3CCN(c4ccc(C5CCCC5)cc4)CC3)c2)CC1 ... Not met
3) COc1ccc(N(C)Cc2cc(N3CC(C)NC(C)C3)ccc2C#N)cc1 (stereo not shown) ... Not met
4) CN1CCN(c2ccc(C#N)c(CNc3ccc(C4CCCCC4)cc3)c2)CC1 ... Met

Query :: Textbook exercise: given the entry `N#Cc1ccc(N2CCNCC2)cc1CNc1ccc(Cl)cc1` , state whether its inhibition at 10 µM is greater than or equal to 80%.
Result :: Met
